- PROTOCOL_DESCRIPTION: liver-stage malaria parasite load reduction – cell-based, known kinase inhibitor set, luminescence, hepatoma host viability (AID 624392);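 further: infected cells incubated roughly two days before readout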
- CONDITION_PARAMETERS: Plasmodium liver stage in hepatoma cells, luciferase luminescence, concentration not given here; stronger effect = lower value
READOUT_KIND: parasite % of control (%)
Enter your answer as a number in %; do not include the unit.

-- ask Request the reported parasite % of control associated with `Cc1cn(-c2cc(C(=O)Nc3ccc(C)c(NC(=O)C(=O)c4c[nH]c5ccccc45)c3)cc(C(F)(F)F)c2)cn1`
-- reply 102

-- ask Same question, `Cc1ccc(C(=O)Nc2cccc(C(F)(F)F)c2)cc1Nc1cncnc1` this time
-- reply 53.6

-- ask Same question, `NS(=O)(=O)c1ccc(-c2ccc(C=C3NC(=S)NC3=O)o2)cc1` this time
-- reply 100

-- ask Same question, `Nc1ccccc1CNc1nc(NCCO)nc2c1ncn2CCN1CCOCC1` this time
-- reply 125

-- ask Same question, CC(C)C(CO)Nc1nc(Nc2ccc(Cl)c(C(=O)O)c2)c2ncn(C(C)C)c2n1 (stereo not given) this time
-- reply 116

-- ask Same question, `CCN1CCN(Cc2ccc(C(=O)Nc3ccc(C)c(NCc4cnc(NC(=O)OC)cn4)c3)cc2C(F)(F)F)CC1` this time
-- reply 107

-- ask Same question, `COc1ccc(CNc2nc(NCc3ccc(OC)cc3)c3ncn(C4CCCC4)c3n2)cc1` this time
-- reply 265

* * *

This listing pairs molecules with measured viability.
- PROTOCOL_DESCRIPTION: drug combination growth inhibition, ovarian cancer – cell-based, oncology-focused library, rucaparib conditional, profiling panel (AID 1508598)
- CONDITION_PARAMETERS: patient-derived ovarian cancer cells, CellTiter-Glo viability, 144 h; at 0.00122 µM; OCI-P5x cells; with rucaparib 20 µM; stronger effect = lower value; 100% = cells with rucaparib alone
Enter your answer as a number in %; do not include the unit.

Worked examples, 2 molecules total:
{"ENTRY_SMILES": "CO[C@H]1C[C@@H]2CC[C@@H](C)[C@@](O)(O2)C(=O)C(=O)N2CCCC[C@H]2C(=O)O[C@H]([C@@H](C)C[C@@H]2CC[C@@H](OCCO)[C@H](OC)C2)CC(=O)[C@H](C)/C=C(\\C)[C@H](O)[C@@H](OC)C(=O)[C@H](C)C[C@H](C)/C=C/C=C/C=C/1C", "UNIT_TAG": "%", "viability": 88}
{"ENTRY_SMILES": "O=c1[nH]c(=O)n([C@@H]2C[C@H](O)[C@@H](CO)O2)cc1F", "UNIT_TAG": "%", "viability": 65.1}

From here, focus on the item given below.
-- ask Request the reported viability associated with `OCCn1cc(-c2ccc3c(c2)CCC3=NO)c(-c2ccncc2)n1`
-- reply 103

* * *

- PROTOCOL_DESCRIPTION: viability loss with induced miR-34 in A549 – imaging, A549 dox-inducible miR-34, nuclei and caspase counts, primary screen (AID 1347080)
- CONDITION_PARAMETERS: A549 miR-34 inducible, Hoechst nuclei count, 48 h; measured here: total cells with miR-34 induction; stronger effect = lower value
Definition: the class of an entry is the range in band A = under 7000, band B = from 7000 up to 9000, band C = 9000 and over that contains its cell count.

{"COMPOUND": "CCC(C)[C@H](NS(=O)(=O)c1cccc2ccccc12)C(=O)N[C@H](C=O)Cc1c[nH]c2ccccc12 (stereo partly specified)", "ASSIGNED_CLASS": "band A"}
{"COMPOUND": "O=C(c1ccc(C=Cc2n[nH]c3ccccc23)cc1)N1CCNCC1", "ASSIGNED_CLASS": "band A"}
{"COMPOUND": "NS(=O)(=O)c1ccc(-n2nc(C(F)(F)F)cc2-c2ccc(Cl)cc2)cc1", "ASSIGNED_CLASS": "band B"}

-- ask # classify by cell count band: `Oc1cccc(-c2nc(N3CCOCC3)c3sccc3n2)c1`
-- reply band A

-- ask Same question, CC(OC1OCCN(Cc2n[nH]c(=O)[nH]2)C1c1ccc(F)cc1)c1cc(C(F)(F)F)cc(C(F)(F)F)c1 (stereo unspecified) this time
-- reply band B

-- ask Same question, Cc1c(C(=O)Nc2ccc(N3CC(C)OC(C)C3)nc2)cccc1-c1ccc(OC(F)(F)F)cc1 (stereo unspecified) this time
-- reply band A

-- ask Same question, CC1(C)S[C@@H]2[C@H](NC(=O)C(C(=O)O)c3ccsc3)C(=O)N2[C@H]1C(=O)O (stereo partly specified) this time
-- reply band C

-- ask Same question, OC(CC1c2ccccc2-c2cncn21)C1CCCCC1 (stereo unspecified) this time
-- reply band B

-- ask Same question, CCc1cc(CN2CCN(C)C(CCO)C2)on1 (stereo unspecified) this time
-- reply band B

-- ask Same question, COc1cc(N(C)CC2COc3ccccc3O2)nc(N)n1 (stereo unspecified) this time
-- reply band A

-- ask Same question, `N[C@@H](CCC(=O)N[C@H](CSN=O)C(=O)NCC(=O)O)C(=O)O` this time
-- reply band C

-- ask Same question, `CC(C)C[C@@H](/C=C/S(C)(=O)=O)NC(=O)[C@H](CC(C)C)NC(=O)[C@H](CC(C)C)NC(=O)OCc1ccccc1` this time
-- reply band A

-- ask Same question, CC(NC(=O)Cc1cc(F)cc(F)c1)C(=O)NC(C(=O)OC(C)(C)C)c1ccccc1 (stereo unspecified) this time
-- reply band B

-- ask Same question, C=CCN1CCc2c(cc(O)c(O)c2Cl)C(c2ccccc2)C1 (stereo unspecified) this time
-- reply band B

-- ask Same question, `CCCn1ncc(-c2ccnc(NCc3cc(CC)no3)n2)c1C` this time
-- reply band A

-- ask Same question, C[C@H](Cc1ccccc1)Nc1ncnc2c1ncn2[C@@H]1O[C@H](CO)[C@H](O)C1O (stereo partly specified) this time
-- reply band C

-- ask Same question, COc1c(O)cc2c(c1O)C1OC(CO)C(O)C(O)C1OC2=O (stereo unspecified) this time
-- reply band C

-- ask Same question, `O=C1CC(=O)c2c(Cl)c(Cl)c(Cl)c(Cl)c21` this time
-- reply band B

-- ask Same question, Nc1nc(CC(=O)Nc2ccc(CCNCC(O)c3ccccc3)cc2)cs1 (stereo unspecified) this time
-- reply band B

* * *

- PROTOCOL_DESCRIPTION: MELAS cybrid and Rieske KO viability enhancers – cell-based, MELAS cybrids, Rieske KO mouse fibroblasts, CellTiter-Glo, primary screen (AID 1508586);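 further: z relative to plate mean and SD of compound and empty wells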
- CONDITION_PARAMETERS: Rieske KO mouse fibroblast survival, low glucose, CellTiter-Glo 72 h
READOUT_KIND: z-score
Give a plain numeric answer without units written out.

{"COMPOUND": "CC(C)(C)CC(C)(C)c1ccc(OCOCCOCCO)c(Cc2cc(C(C)(C)CC(C)(C)C)cc(Cc3cc(C(C)(C)CC(C)(C)C)ccc3OCOCCOCCO)c2OCOCCOCCO)c1", "MEASURED_NUMBER": -1.21}

-- ask Request the reported z-score associated with CC(=O)O[C@@]1(C(C)=O)CC[C@H]2[C@@H]3CCC4=CC(=O)CCC4=C3C(c3ccc(N(C)C)cc3)C[C@@]21C (some centres undefined)
-- reply -0.0703

-- ask Same question, `C#C[C@@]1(O)CC[C@H]2[C@@H]3CCc4cc(OC)ccc4[C@@H]3CC[C@@]21C` this time
-- reply 0.814

-- ask Same question, `COc1ccc(-c2[nH]ncc2CN2CCC3(CC2)C(=O)N(C(C)C)C(=O)N3CCC(C)C)cc1` this time
-- reply -0.0351

* * *

- PROTOCOL_DESCRIPTION: RCMB18 cell growth, single agent and combined, cisplatin and BGB IC40 combos (AID 1671462);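 further: cells exposed to compound for four days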
- CONDITION_PARAMETERS: RCMB18 medulloblastoma cells, measured here: combination with cisplatin, at 0.5 µM, stronger effect = higher value
READOUT_KIND: inhibition (%)
Enter your answer as a number in %; do not include the unit.

{"MOLECULE": "CC1CN(c2c(F)c(N)c3c(=O)c(C(=O)O)cn(C4CC4)c3c2F)CC(C)N1 (stereo not given)", "MEASURED_NUMBER": -22.2}

-- ask Request the reported inhibition associated with CC(C)OC(=O)[C@H](C)NP(=O)(OC[C@H]1O[C@@H](n2ccc(=O)[nH]c2=O)C(C)(F)[C@@H]1O)Oc1ccccc1 (stereo not given in full)
-- reply 19.3

-- ask Same question, `Cc1cc(C)c(Nc2ccnc(Nc3ccc(C#N)cc3)n2)c(C)c1` this time
-- reply -16.3

* * *

- PROTOCOL_DESCRIPTION: viability loss with induced miR-34 in A549 – imaging, A549 dox-inducible miR-34, nuclei and caspase counts, primary screen (AID 1347080)
- CONDITION_PARAMETERS: A549 miR-34 inducible, Hoechst nuclei count, 48 h; measured here: total cells with miR-34 induction; stronger effect = lower value
READOUT_KIND: cell count
Give a plain numeric answer without units written out.

-- ask Request the reported cell count associated with O=C(C=Cc1ccccc1)NC(NC(=S)Nc1ccc(Cl)cc1)C(Cl)(Cl)Cl (centres undefined)
-- reply 2510

-- ask Same question, C=C1CCC(O)CC1=CC=C1CCC[C@]2(C)C(C(C)CCCC(C)C)CC[C@@H]12 (some centres undefined) this time
-- reply 8000

-- ask Same question, `CC(=O)C1=C(O)C=C2Oc3c(C(C)=O)c(O)c(C)c(O)c3[C@]2(C)C1=O` this time
-- reply 5890

-- ask Same question, `Cc1cc(-c2cnn(C)c2)nc(N)n1` this time
-- reply 8800

-- ask Same question, C[C@]12CCC(O)CC1=CCC1C2CC[C@]2(C)C(n3cnc4ccccc43)=CCC12 (some centres undefined) this time
-- reply 7740

-- ask Same question, CN[C@@H]1C(O[C@H]2O[C@H](CO)[C@@H](N)[C@H](O)[C@H]2O)O[C@H]2C[C@@H](N)[C@@H](O[C@H]3[C@H](O)[C@@H](O)[C@H](N)C[C@@H]3N)OC2[C@@H]1O (some centres undefined) this time
-- reply 9080
